Target: DNA gyrase from E. coli (Escherichia coli, UniProt P0AES4+P0AES6)
Experiment: E. coli DNA gyrase inhibition (Inspiralis assay)
Measured Quantity: pIC50
Give bare numbers, as −log10 of the molar value.

I'd like to know its pIC50. The compound in question is CCCCCN(C)Cc1cc(C(=O)O)ccc1Nc1ccnc(Nc2ccc3cc(C)[nH]c3c2)n1 [Example 8]
6.50

// provenance: patent US11773084B1
